Kindly state IC50 for each of the entries shown.
Tested on: AMPA-induced neuronal damage in primary cortical neuronal cultures
Assay: AMPA-induced neuronal damage in primary cortical neuronal cultures, LDH release
Format: cell-based
Conditions: Table 2, cyclopentyl-fused analogs, long-term exposure to 100 μM AMPA
One number for each entry, in µM.

These recorded examples may help you get a feel for the data.
compound="O=C(NC1Cc2c([N+](=O)[O-])cc3[nH]c(=O)c(=O)[nH]c3c2C1)c1ccoc1 (centres unmarked)" tested_system="AMPA-induced neuronal damage in primary cortical neuronal cultures" observed_measurement=14
compound="O=C(NC1Cc2c([N+](=O)[O-])cc3[nH]c(=O)c(=O)[nH]c3c2C1)c1ccsc1 (centres unmarked)" tested_system="AMPA-induced neuronal damage in primary cortical neuronal cultures" observed_measurement=14
compound="O=C(NC1Cc2c([N+](=O)[O-])cc3[nH]c(=O)c(=O)[nH]c3c2C1)c1cccnc1 (centres unmarked)" tested_system="AMPA-induced neuronal damage in primary cortical neuronal cultures" observed_measurement=28

Next compound, IC50 to be filled in.
Would you kindly share the measured IC50 for O=C(NC1Cc2c([N+](=O)[O-])cc3[nH]c(=O)c(=O)[nH]c3c2C1)c1ccccc1 (centres unmarked) ?
18

# credit: patent US5721234A
